Listed here are binders together with their documented Kd.
biological target: T1, human IL-6 (mature hIL-6) (human, UniProt P05231 30-212); assay: SPR (format not stated)
T1 construct: also called the antigen
T1 sequence (P05231 30-212): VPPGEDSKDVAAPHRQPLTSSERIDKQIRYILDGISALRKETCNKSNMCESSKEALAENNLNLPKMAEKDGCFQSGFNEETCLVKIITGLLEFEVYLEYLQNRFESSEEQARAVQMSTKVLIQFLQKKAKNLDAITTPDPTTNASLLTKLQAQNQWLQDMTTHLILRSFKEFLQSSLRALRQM
Report only the number, with the unit nM understood.

Polypeptide_7 (VHH, VHH_2.7 with C-terminal His tag extension E1; also called [VHH_2.7]-E1) VHH: EVQLVESGGRWVQPGASLRLSCTTSGRTFSSYAMGWFRQAPGKEREFVADIGENADNRWYAHSVKGRFTISRDNAKNTVYLQMNSLKPEDTAVYYCAADRYGVGGGAQGYYDSWGQGTQVTVSS ... 0.631

Let us examine a further case.
Record request: Kd value, item Polypeptide_19 (VHH, VHH_1.11 with C-terminal His tag extension E1; also called [VHH_1.11]-E1) VHH: QLQLVESGGGWVQPGGSLKLSCTTSGRTFSSYAVGWFRQAPGKEREFVADIGENADNTWYAHSVKGRFTISRDNAKNTVYLQMNSLKPEDTAVYYCAADSYGVGGGAQGYYDSWGQGTQVTVSS
0.001
